assay.details: melting temperature; melt of duplexes
condition.info: sodium 0.0675 M; strand 1 µM
quantity: Tm (°C)

> print(dat)
                                  substance  quantity  result.value
1  CGACGTGCTATATGTGCTG+CAGCACATTCCGCACGTCG ((((((((...((((((((+))))))))...))))))))        Tm          47.8
2  CGACGTGCCTAATGTGCTG+CAGCACATATCGCACGTCG ((((((((...((((((((+))))))))...))))))))        Tm            47
3  CGACGTGCGCTATGTGCTG+CAGCACATGGTGCACGTCG ((((((((.(.((((((((+)))))))).).))))))))        Tm          54.6
4  CGACGTGCATAATGTGCTG+CAGCACATGCGGCACGTCG ((((((((...((((((((+))))))))...))))))))        Tm          48.7
5  CGACGTGCTTAATGTGCTG+CAGCACATGCTGCACGTCG ((((((((...((((((((+))))))))...))))))))        Tm          49.1
6  CGACGTGCACGATGTGCTG+CAGCACATCGTGCACGTCG (((((((((((((((((((+)))))))))))))))))))        Tm          65.4
7  CGACGTGCATTATGTGCTG+CAGCACATATAGCACGTCG ((((((((..(((((((((+)))))))))..))))))))        Tm          52.3

* * *

assay.details: melting temperature; melt of duplexes
condition.info: sodium 0.0675 M; strand 1 µM
substances and their reported Tm
quantity: Tm (°C)

> print(dat)
                                   substance  quantity  result.value
 1  CGACGTGCGTGATGTGCTG+CAGCACATGAAGCACGTCG ((((((((.(.((((((((+)))))))).).))))))))        Tm            54
 2  CGACGTGCAACATGTGCTG+CAGCACATCACGCACGTCG ((((((((...((((((((+))))))))...))))))))        Tm          46.5
 3  CGACGTGCGTCATGTGCTG+CAGCACATGCCGCACGTCG (((((((((.(((((((((+))))))))).)))))))))        Tm          59.9
 4  CGACGTGCGCGATGTGCTG+CAGCACATGTAGCACGTCG ((((((((...((((((((+))))))))...))))))))        Tm          52.6
 5  CGACGTGCTCTATGTGCTG+CAGCACATTCTGCACGTCG ((((((((...((((((((+))))))))...))))))))        Tm          47.8
 6  CGACGTGCTCCATGTGCTG+CAGCACATCGAGCACGTCG ((((((((((.((((((((+)))))))).))))))))))        Tm          55.2
 7  CGACGTGCCTCATGTGCTG+CAGCACATTATGCACGTCG ((((((((.(.((((((((+)))))))).).))))))))        Tm          47.7
 8  CGACGTGCATAATGTGCTG+CAGCACATGTAGCACGTCG ((((((((...((((((((+))))))))...))))))))        Tm          52.6
 9  CGACGTGCCAAATGTGCTG+CAGCACATATCGCACGTCG ((((((((.(.((((((((+)))))))).).))))))))        Tm          47.2
10  CGACGTGCAGCATGTGCTG+CAGCACATCCTGCACGTCG ((((((((((.((((((((+)))))))).))))))))))        Tm          53.9
11  CGACGTGCCCAATGTGCTG+CAGCACATCGGGCACGTCG ((((((((((.((((((((+)))))))).))))))))))        Tm          58.9
12  CGACGTGCATGATGTGCTG+CAGCACATAACGCACGTCG ((((((((.(.((((((((+)))))))).).))))))))        Tm          49.3
13  CGACGTGCGCGATGTGCTG+CAGCACATAATGCACGTCG ((((((((...((((((((+))))))))...))))))))        Tm            50
14  CGACGTGCCGCATGTGCTG+CAGCACATGTAGCACGTCG ((((((((..(((((((((+)))))))))..))))))))        Tm          54.4
15  CGACGTGCCACATGTGCTG+CAGCACATTCGGCACGTCG (((((((((..((((((((+))))))))..)))))))))        Tm          53.4
16  CGACGTGCATTATGTGCTG+CAGCACATATGGCACGTCG ((((((((..(((((((((+)))))))))..))))))))        Tm          51.8
17  CGACGTGCGATATGTGCTG+CAGCACATGGTGCACGTCG ((((((((...((((((((+))))))))...))))))))        Tm          49.2
18  CGACGTGCCCGATGTGCTG+CAGCACATTCCGCACGTCG ((((((((...((((((((+))))))))...))))))))        Tm          48.2
19  CGACGTGCATGATGTGCTG+CAGCACATAAAGCACGTCG ((((((((.(.((((((((+)))))))).).))))))))        Tm          50.7
20  CGACGTGCTATATGTGCTG+CAGCACATGATGCACGTCG ((((((((...((((((((+))))))))...))))))))        Tm          51.9
21  CGACGTGCTCGATGTGCTG+CAGCACATCCCGCACGTCG ((((((((..(((((((((+)))))))))..))))))))        Tm          52.1
22  CGACGTGCCTAATGTGCTG+CAGCACATCCGGCACGTCG (((((((((..((((((((+))))))))..)))))))))        Tm            52
23  CGACGTGCTCGATGTGCTG+CAGCACATGAAGCACGTCG (((((((((..((((((((+))))))))..)))))))))        Tm          52.8
24  CGACGTGCGTTATGTGCTG+CAGCACATCACGCACGTCG ((((((((((.((((((((+)))))))).))))))))))        Tm          56.8
25  CGACGTGCGATATGTGCTG+CAGCACATGAGGCACGTCG ((((((((...((((((((+))))))))...))))))))        Tm          53.1
26  CGACGTGCATTATGTGCTG+CAGCACATTCAGCACGTCG ((((((((...((((((((+))))))))...))))))))        Tm          48.7
27  CGACGTGCCGAATGTGCTG+CAGCACATCCAGCACGTCG ((((((((.(.((((((((+)))))))).).))))))))        Tm          49.8
28  CGACGTGCCAAATGTGCTG+CAGCACATCACGCACGTCG ((((((((...((((((((+))))))))...))))))))        Tm          47.3
29  CGACGTGCACTATGTGCTG+CAGCACATCGTGCACGTCG ((((((((((.((((((((+)))))))).))))))))))        Tm          51.4
